Target: T1, Fusion protein of extracellular domain of human TIGIT and His-tag (human TIGIT ECD-his) (human)
T1 chain: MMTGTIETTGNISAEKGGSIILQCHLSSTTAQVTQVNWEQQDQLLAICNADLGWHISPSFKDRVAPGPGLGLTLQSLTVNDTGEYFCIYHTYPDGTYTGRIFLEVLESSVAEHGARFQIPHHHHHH
Assay: BIAcore
Property: log10 kon (log10 of the value in M⁻¹ s⁻¹)
// units: M⁻¹ s⁻¹ (pre-log); metric: kon; scale: log10

In the examples that follow, each entry is paired with its recorded log10 kon.
{"Binder": "TIGIT-070-H1L3 (antibody, V domains shown, Humanized anti-TIGIT antibody) VH: EVQLVQSGAEVKKPGASVKVSCKASGYTFTNYYMHWVRQAPGQRLEWMGRIDPDSGGSKYNEKFKSRVTITVDKSASTAYMELSSLRSEDTAVYYCAREGHYGFYSDYWGQGTTVTVSS VL: DIVMTQSPDSLAVSLGERATINCRVSENIYSYLAWYQQKPGQSPKLLVYNAKTLAEGVPDRFSGSGSGTDFTLTISSLQAEDVAVYYCQHHYGNPLTFGPGTKVDIK", "log10 kon": 6.25}
{"Binder": "TIGIT-006-H4L2 (antibody, V domains shown, Humanized anti-TIGIT antibody) VH: EVQLQESGPGLVKPSETLSLTCAVSGYSMTSDYWNWIRQPPGKKLEWMGYISYSGRTYYNPSLKSRITISRDTSKNQFSLKLSSVTAADTAVYYCARGDYSNYGGAMYDWGQGTTVTVSS VL: DIVMTQTPLSLSVTPGQPASISCRASQGVSTTIAWYQQKPGQSPKLLIYSASYRYTGVPDRFSGSGSGTDFTLKISRVEAEDVGVYYCQQYYSSPFTFGGGTKVEIK", "log10 kon": 5.53}
{"Binder": "TIGIT-006-H5L3 (antibody, V domains shown, Humanized anti-TIGIT antibody) VH: EVQLQESGPGLVKPSETLSLTCAVSGYSMTSDYWNWIRQPPGKKLEYIGYISYSGRTYYNPSLKSRVTISRDTSKNQFSLKLSSVTAADTAVYYCARGDYSNYGGAMYDWGQGTTVTVSS VL: DIVMTQSPDSLAVSLGERATINCRASQGVSTTIAWYQQKPGQSPKLLIYSASYRYTGVPRFSGSGSGTDFTLTISSLQAEDVAVYYCQQYYSSPFTFGGGTKVEIK", "log10 kon": 6.40}
{"Binder": "TIGIT-070-H2L2 (antibody, V domains shown, Humanized anti-TIGIT antibody) VH: EVQLVQSGAEVKKPGASVKVSCKASGYTFTNYYMHWVRQAPGQRLEWMGRIDPDSGGSKYNEKFKSRVTITVDKLSSTAYMELSSLRSEDTAVYYCAREGHYGFYSDYWGQGTTVTVSS VL: DIQMTQSPSSLSASVGDRVTITCRVSENIYSYLAWYQQKPGKSPKLLVYNAKTLAEGVPSRFSGSGSGTDFTLTISSLQPEDFATYYCQHHYGNPLTFGPGTKVDIK", "log10 kon": 6.22}

From here, focus on the item given below.
## Task Query: log10 kon; subject: TIGIT-CHI-070 (antibody, V domains shown, Human-mouse chimeric antibody) VH: QVQLQQPGTELVKPGASVKLSCRASGYTFTNYYMHWVKQRPGRGLEWIGRIDPDSGGSKYNEKFKSKATLTVDKLSSTAYMQLSSLTSEDSAVYYCAREGHYGFYSDYWGQGTTLTVSS VL: DIQMTQSPASLSASVGETVTITCRVSENIYSYLAWYQQKQGKSPQLLVYNAKTLAEGVPSRFSGSGSGTQFSLKINSLQPEDFGNYYCQHHYGNPLTFGAGTKLDLK
## Result 6.17
